Assay: Volume of distribution in Sprague-Dawley rat at 0.5 mg/kg, iv
Assay type: ADME, organism-based
Conditions: in vivo
Reported Endpoint: Vd

Vd for Cc1cccc2c1c(=O)n(C[C@H]1CC[C@H](C(=O)Nc3ccncc3)CC1)c(=O)n2Cc1cccc(Cl)c1C#N is 2.1 L/kg

----------
Assay: Oral bioavailability in Sprague-Dawley rat at 10 mg/kg
Type: ADME, organism-based
Conditions: in vivo
Reported Endpoint: bioavailability (%)
A number alone suffices; assume %.

bioavailability for N#Cc1ccccc1Cn1c(=O)n(C[C@H]2CC[C@H](C(=O)Nc3ccncc3)CC2)c(=O)c2ccccc21 is 3.6

----------
Test: Clearance in Sprague-Dawley rat at 0.5 mg/kg, iv
Assay type: ADME, organism-based
Conditions: in vivo
Reported Endpoint: clearance (mL/min/kg)
A number alone suffices; assume mL/min/kg.

clearance for Cc1cccc2c1c(=O)n(C[C@H]1CC[C@H](C(=O)Nc3ccncc3)CC1)c(=O)n2Cc1cccc(Cl)c1C#N is 45.9

----------
Assay: Clearance in Sprague-Dawley rat at 5 mg/kg, po or 2 mg/kg, iv
Format: ADME, organism-based
Details: in vivo
Reported Endpoint: clearance (mL/min/kg)
A number alone suffices; assume mL/min/kg.

clearance for N#Cc1c(Cn2c(=O)n(C[C@H]3CC[C@H](C(=O)O)CC3)c(=O)c3ccccc32)cccc1C(F)(F)F is 1.88

----------
Catalogue of pIC50 readings, one per entry.
Target: UniProt O95271
Sequence (O95271 whole entry): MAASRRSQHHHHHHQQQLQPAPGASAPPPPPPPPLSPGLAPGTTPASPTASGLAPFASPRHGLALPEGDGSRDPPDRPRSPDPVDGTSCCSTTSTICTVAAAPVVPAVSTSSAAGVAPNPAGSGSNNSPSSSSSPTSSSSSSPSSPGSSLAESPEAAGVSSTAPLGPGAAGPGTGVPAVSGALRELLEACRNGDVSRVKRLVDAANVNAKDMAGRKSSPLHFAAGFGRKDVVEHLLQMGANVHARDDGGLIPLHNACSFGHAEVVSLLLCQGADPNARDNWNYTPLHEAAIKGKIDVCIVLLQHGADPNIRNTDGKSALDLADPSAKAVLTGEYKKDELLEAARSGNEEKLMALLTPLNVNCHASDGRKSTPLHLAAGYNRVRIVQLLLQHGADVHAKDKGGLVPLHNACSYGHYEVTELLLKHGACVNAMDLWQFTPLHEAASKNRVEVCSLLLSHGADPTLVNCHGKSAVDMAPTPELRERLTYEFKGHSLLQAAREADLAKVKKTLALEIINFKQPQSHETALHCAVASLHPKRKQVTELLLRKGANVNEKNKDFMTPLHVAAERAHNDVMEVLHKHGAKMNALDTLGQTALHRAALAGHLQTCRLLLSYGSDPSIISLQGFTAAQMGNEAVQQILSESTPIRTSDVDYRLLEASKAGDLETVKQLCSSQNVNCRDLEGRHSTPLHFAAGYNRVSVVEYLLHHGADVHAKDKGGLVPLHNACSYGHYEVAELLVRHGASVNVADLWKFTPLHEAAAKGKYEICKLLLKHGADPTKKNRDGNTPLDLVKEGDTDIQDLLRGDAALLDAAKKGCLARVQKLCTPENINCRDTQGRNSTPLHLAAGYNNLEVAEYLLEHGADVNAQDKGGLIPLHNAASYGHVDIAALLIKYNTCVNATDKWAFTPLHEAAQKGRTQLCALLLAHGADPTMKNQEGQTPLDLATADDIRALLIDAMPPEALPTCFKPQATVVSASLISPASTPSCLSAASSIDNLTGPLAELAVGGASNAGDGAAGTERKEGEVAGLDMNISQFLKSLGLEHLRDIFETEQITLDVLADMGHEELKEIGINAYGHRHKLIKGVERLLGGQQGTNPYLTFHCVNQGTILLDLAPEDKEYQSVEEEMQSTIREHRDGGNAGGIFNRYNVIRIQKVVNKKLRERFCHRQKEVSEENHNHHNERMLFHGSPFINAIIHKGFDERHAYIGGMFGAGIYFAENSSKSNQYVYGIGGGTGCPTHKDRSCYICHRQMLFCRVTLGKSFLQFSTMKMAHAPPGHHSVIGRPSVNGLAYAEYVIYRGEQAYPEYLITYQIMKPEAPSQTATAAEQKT
The quantity pIC50 is defined as the negative base-10 logarithm of the molar concentration.

The following compounds have reported results that may help.
>  <Smiles Record>
Cc1ccc2c(c1C)c(=O)n(C[C@H]1CC[C@H](C(=O)O)CC1)c(=O)n2Cc1cccc(C(F)(F)F)c1C#N

>  <pIC50>
7.80

$$$$
>  <Smiles Record>
N#Cc1c(Cn2c(=O)n(C[C@H]3CC[C@H](C(=O)O)CC3)c(=O)c3c(Cl)cccc32)cccc1C(F)(F)F

>  <pIC50>
7.80

$$$$
>  <Smiles Record>
Cc1cccc2c1c(=O)n(C[C@H]1CC[C@H](C(=O)O)CC1)c(=O)n2Cc1cccc(C(F)(F)F)c1C#N

>  <pIC50>
8.40

$$$$
>  <Smiles Record>
N#Cc1ccccc1Cn1c(=O)n(C[C@H]2CC[C@H](C(=O)Nc3ccncc3)CC2)c(=O)c2ncccc21

>  <pIC50>
6.90

$$$$
>  <Smiles Record>
Cc1cccc(Cn2c(=O)n(C[C@H]3CC[C@H](C(=O)Nc4ccncc4)CC3)c(=O)c3c(C)cccc32)c1C#N

>  <pIC50>
8.70

$$$$

Note: attention shifts to another entry.
Tested on UniProt O95271: COc1cccc2c1c(=O)n(C[C@H]1CC[C@H](C(=O)O)CC1)c(=O)n2Cc1cccc(C(F)(F)F)c1C#N . Observed pIC50: 8.09

----------
Assay: Oral bioavailability in Sprague-Dawley rat at 5 mg/kg
Type: ADME, organism-based
Settings: in vivo
Reported Endpoint: bioavailability
Report the figure along with its unit, number first.

bioavailability for N#Cc1c(Cn2c(=O)n(C[C@H]3CC[C@H](C(=O)O)CC3)c(=O)c3ccccc32)cccc1C(F)(F)F is 14.5%

----------
Assay: Half life in C57 mouse at 3 mg/kg, po or 1 mg/kg, iv
Assay type: ADME, organism-based
Settings: in vivo
Reported Endpoint: half-life (h)
A number alone suffices; assume h.

half-life for Cc1cccc2c1c(=O)n(C[C@H]1CC[C@H](C(=O)O)CC1)c(=O)n2Cc1cccc(C(F)(F)F)c1C#N is 10.9
